Give measured growth inhibition for each item. Keep answers brief.
assay: NCI Yeast Anticancer Drug Screen. Data for the sgs1 mgt1 strain (AID 161);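 also: 0% = growth of cultures given vehicle only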; details: S. cerevisiae sgs1 mgt1 strain, at 50.0 µM, hits give high values
This is part of a sample that, as a whole, favours compounds with a hit. Of some 79,000 tested, about 15% had one in any assay.
Answers are plain numbers, in %.

Answered examples (5):
O=S(=O)(Nc1ncccn1)c1ccc(N=NSC2=NC=NC3=NC=NC32)cc1 (stereo unspecified); 20.5
CC1(C)CC(=O)C(C=NC(=O)c2ccncc2)=C(O)C1; -3.55
CC(Oc1ccccc1)C(=O)Nc1ccc(F)cc1 (stereo unspecified); 17.8
COCCOC(=O)CO; -4.7
CC(C)(O)/C(=N/O)c1ccc(-c2ccccc2)cc1; 0.35

With those in mind, consider the next compound.
Supply recorded growth inhibition for COc1cc(OC)c(NC(=O)CC2SC(N)=NC2=O)cc1Cl (stereo unspecified) here.
20.2

====

Consider the following compounds; for each one, report its growth inhibition.
test: NCI Yeast Anticancer Drug Screen. Data for the sgs1 mgt1 strain (AID 161);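 also: 0% = growth of cultures given vehicle only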; conditions: S. cerevisiae sgs1 mgt1 strain, at 50.0 µM, hits give high values
About 79,000 compounds went through this panel and 15% of them were active in at least one assay; those are over-represented in the sample as a whole.
Answers are plain numbers, in %.

O=C(O)[C@@H]1CCC(=O)N1C(c1ccc2c(c1)OCO2)c1ccc2c(c1)OCO2; -31.1
CCc1cc(COC(C)=O)on1; -8.4

State recorded growth inhibition for all listed compounds.
1. O=c1cccc(O)[nH]1
2. Cc1ccc2c(c1)C(C)(C)CCC2
3. N#C/C(=C\c1cc(Br)cc(Br)c1O)c1ccc([N+](=O)[O-])cc1
4. O=C1C=CC(=O)c2c(Cl)ccc(O)c21
5. O=C(O)c1ccc2c(c1C(=O)O)C(=O)OC2(c1ccc(O)cc1)c1ccc(O)cc1

[-15.1, -18.4, -6.8, -20.4, -21.6]

Here are 3 compounds. What values of growth inhibition were reported for them?
1. CC(=O)OCC1OC(n2c(-c3ccc(C)cc3)cc(-c3ccccc3)c(C#N)c2=S)C(OC(C)=O)C(OC(C)=O)C1OC(C)=O (stereo unspecified)
2. COc1cc([N+](=O)[O-])ccc1NC(=O)Nc1ccc(Cl)cc1[N+](=O)[O-]
3. CC(C)(C)c1ccc(-n2c3nc(=O)n(-c4ccccc4CO)c(=O)c-3cc3ccccc32)cc1

1: 6.15; 2: 24.6; 3: -9.5

Supply recorded growth inhibition for N#CSCC(=O)CCC(=O)O here.
-8.8

====

experiment: NCI Yeast Anticancer Drug Screen. Data for the mlh1 rad18 strain (AID 175); conditions: S. cerevisiae mlh1 rad18 strain growth inhibition; at 50.0 µM; hits give high values
Compounds without any hit were thinned out: in the full panel of roughly 79,000, 15% have a hit.
Quantity Measured: growth inhibition (%)
Answers are plain numbers, in %.

CCCCN(C=O)CCCC; 3.7
CCOC(=O)/C=C(\Nc1ccc(C(c2ccccc2)(c2ccccc2)c2ccccc2)cc1)C(=O)OCC; 27.1

// batch mode: one growth inhibition value per listed entry
1. CC(O)COC(C)COC(C)c1ccccc1 (stereo unspecified)
2. NNC(=O)c1ccccc1Cl
3. O=C(Nc1ccccc1C/C(=N/O)c1ccc2c(c1)OCO2)c1ccccc1
4. CCCC(=O)OCCC(C)C
5. O=[N+]([O-])c1ccc(/C(=N/Nc2ccccc2)c2ccc(Cl)cc2)cc1
6. COc1c(NC(=O)c2ccc([N+](=O)[O-])cc2)cccc1[N+](=O)[O-]
7. CCOC(=O)c1cc(N)c(C(=O)OCC)cc1N

1. 4.65
2. -25.9
3. 23.4
4. 22.4
5. 4.1
6. 20.4
7. 10.3

Return reported growth inhibition values for all items listed beneath this line.
1. O=C1CN(c2cccc(Cl)c2)C(=O)CN1/N=C/c1ccc(O)c(O)c1
2. O=C(O)CC(NC(=O)C(CC(=O)OCc1ccccc1)NC(=O)OCc1ccccc1)C(=O)OCc1ccccc1 (stereo unspecified)

1: -8.9; 2: 36.6

====

Provide the reported growth inhibition of each item.
test: NCI Yeast Anticancer Drug Screen. Data for the bub3 strain (AID 167); conditions: S. cerevisiae bub3 mutant strain, at 50.0 µM, hits give high values
About 79,000 compounds went through this panel and 15% of them were active in at least one assay; those are over-represented in the sample as a whole.
Give bare numbers, in %.

O=C(c1ccccc1)C(c1ccccc1)C1(O)C(=O)Nc2c(Cl)ccc(Cl)c21 (stereo not drawn); -8.1
CC1(C)CC(O)CC(O)C1 (stereo not drawn); -0.15
Clc1ccc2nc(/C=C/c3ccccc3)cnc2c1; 14.1
CC(C)(C)CC(C)(C)c1cc2c(O)c(c1)Cc1cc(C(C)(C)CC(C)(C)C)cc(c1O)Cc1cc(C(C)(C)CC(C)(C)C)cc(c1O)Cc1cc(C(C)(C)CC(C)(C)C)cc(c1O)Cc1cc(C(C)(C)CC(C)(C)C)cc(c1O)C2; 6.3
NC(=O)N/N=C/c1c(Cl)cccc1Cl; -27.6

Lab note: each compound below needs its growth inhibition filled in.
1. COc1cc(OC)c(-c2cc(C(=O)O)c3cc4ccccc4cc3n2)c(OC)c1
2. CC(C)(C)OC(=O)N/N=C(/N)Cc1ccccc1

[21.6, 6.4]

====

Assign growth inhibition to each entry below.
experiment: NCI Yeast Anticancer Drug Screen. Data for the cln2 rad14 strain (AID 165);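 also: 0% = growth equal to vehicle treated cultures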; conditions: S. cerevisiae cln2 rad14 strain, at 50.0 µM, hits give high values
About 79,000 compounds went through this panel and 15% of them were active in at least one assay; those are over-represented in the sample as a whole.
One number for each entry, in %.

CC(C)(C)c1ccc(SC(=O)NCCCl)cc1; -31.1
CCc1c(C)c(C#N)c(=S)n(C2OC(COC(C)=O)C(OC(C)=O)C(OC(C)=O)C2OC(C)=O)c1-c1ccccc1 (stereo not drawn); 8.25
Cc1ccc(S(=O)(=O)N2CCN(C=S)CC2)cc1; 3.9
CCNC(=O)OCCN(C)CCOC(=O)NCC; -20
O=Cc1c[nH]c2ccccc2c1=O; 3.55
Cn1cccc1/C=N/N=C(/N)NO; -4.5
Br/C(=N\Nc1nn[nH]n1)c1ccncc1; -22
Nc1nc2c(ncn2-c2cccc(Cl)c2)c(=O)[nH]1; -7.5
N#CCC(c1ccccc1)(c1ccccc1)c1ccccc1; 37.1
CCCc1[nH]n(-c2ccccc2)c(=O)c1N=Nc1ccc(Cl)cc1; -5.1

Fill in growth inhibition for each of the 2 molecules listed.
1. COC1(OC)CC(CCl)OC1(OC)OC (stereo not drawn)
2. COC(=O)CCS(=O)(=O)Cc1ccccc1

1: 1.55; 2: -7.9

For COc1ccc2cccc(C(=O)O)c2c1 , write its growth inhibition.
3.35

====

Kindly supply the reported growth inhibition values for the records listed here.
assay: NCI Yeast Anticancer Drug Screen. Data for the bub3 strain (AID 167); settings: S. cerevisiae bub3 mutant strain, at 50.0 µM, hits give high values
The panel holds about 79,000 compounds, 15% with a hit somewhere; the sample as a whole holds those more often. Calls of active or inactive are those of the source. Rule as the data show it: active = growth inhibition above about 70%; inactive = the rest.

C=CC1OCC2(CO1)COC(C=C)OC2 (stereo unspecified); -12.4% (inactive)

Parameter requested: growth inhibition. Apply to each item below.
1. Oc1ccccc1C=NCCN(CCN=Cc1ccccc1O)c1ccccc1
2. O=C1CCC(O)=C1O
3. O=C1c2cc(O)c(O)cc2C(=O)c2cc3c(cc21)OCO3
4. Cc1ccc(Cl)cc1N
5. COC1C2CCC1C(N=O)C2Br (stereo unspecified)
6. O=C(Nc1ccc(Cl)c(Cl)c1)Oc1ccc2ccccc2c1

1. 8.9% (inactive)
2. -2.35% (inactive)
3. -8.3% (inactive)
4. 0.85% (inactive)
5. 0.65% (inactive)
6. 4.1% (inactive)

Each of the following entries comes with a recorded value; kindly state growth inhibition for each.
1. CCCCNC(=O)OCc1cnc(C)n1Cc1ccccc1
2. CC#Cc1c(O)c2c(c(O)c1C#CC)C(=O)c1ccccc1C2=O
3. COc1ccc2nc3c(=O)[nH]c(=O)nc-3n(CC(O)C(O)C(O)CO)c2c1 (stereo unspecified)
4. COCCCCCC(=O)OC
5. Cc1cc(Br)cc2c1NC(=O)C(C)C2C (stereo unspecified)
6. CCOC(=O)C1(C(=O)OCC)CC(CCC#N)(CCC#N)C(=O)C(CCC#N)(CCC#N)C1
7. [O-][n+]1c(CN2CCCCC2)nc2cccc3c2c1-c1ccccc1-3
8. O=NN(CCCl)C(=O)/N=N/C(=O)N(CCCl)N=O

1: 4.1% (inactive); 2: -3% (inactive); 3: 10.9% (inactive); 4: -7% (inactive); 5: -3.35% (inactive); 6: -11.4% (inactive); 7: 20.6% (inactive); 8: -3.85% (inactive)

Need growth inhibition for each of these compounds.
1. NC1=CN(Cc2ccccc2)C2=N/C(=C\c3ccccc3)C(=O)N12
2. COc1ccc2ccccc2c1Cc1c(O)ccc2ccccc12
3. Cc1cc(-n2nnc(C(=O)O)c2-c2ccccc2)c2ccc(Cl)cc2n1
4. Cc1cc(=O)c(C#N)c(C)o1

["14.2% (inactive)", "-3.1% (inactive)", "-8.9% (inactive)", "-1.95% (inactive)"]

Batch: growth inhibition for all items listed.
1. CCOC(=O)/C=C/c1cccc(F)c1
2. CC12CC3CC/C(=N\O)C(C1)C3(N1CCOCC1)C/C2=N/O (stereo unspecified)

12.2% (inactive)
-14.8% (inactive)
